This section presents compounds with their documented fold induction at 8 µM values.
Test system: T-cell
assay.details: CD25 cell surface staining on T-cells stimulated with anti-CD3 antibody alone (Biological Example 2)
Assay type: cell-based
test.parameters: 8 μM compound, primary human total T-cells, baseline = anti-CD3/anti-CD28 stimulated cells without inhibitor, read-out: CD25 staining, Anti-CD3 stimulation, fold change over baseline
parameter: fold induction at 8 µM

* Cc1n[nH]c(C)c1-c1cc2c(c(C(F)(F)F)c1)CN(c1cccc(C3(Cc4nncn4C)COC3)c1)C2=O | > 1
* Cc1conc1C[C@@H](C)c1cccc(N2Cc3c(cccc3C(F)(F)F)C2=O)c1 [Compound 367a] | 0.801 to 1
* C[C@H](Cc1nncn1C)c1cccc(N2Cc3c(cc([C@H]4CCCNC4)cc3C(F)(F)F)C2=O)c1 | > 1
* C[C@H](Cc1nncn1C)c1cccc(N2Cc3c(cc(CN4CC[C@@H](F)C4)cc3C(F)(F)F)C2=O)c1 | > 1
* Cn1cnnc1C(F)(F)[C@](C)(F)c1cccc(N2Cc3c(cc(CN4C[C@@H](F)[C@@H](F)C4)cc3C(F)(F)F)C2=O)c1 | > 1
* C[C@H](c1cc2c(c(C(F)(F)F)c1)CN(c1cccc(C3(Cc4nncn4C)COC3)c1)C2=O)N1CC[C@H](F)C1 | > 1
* Cn1cnnc1CC1(c2cccc(N3Cc4c(cc(CO)cc4C(F)(F)F)C3=O)c2)COC1 | 0.601 to 0.8
* C[C@H](Cc1nncn1C)c1cccc(N2Cc3c(cc(-n4cccn4)cc3C(F)(F)F)C2=O)c1 | > 1
* C[C@H](Cc1nncn1C)c1cccc(N2Cc3c(cc(CN4CC(C)(O)C4)cc3C(F)(F)F)C2=O)c1 | > 1
* Cn1cnnc1CC1(c2cccc(N3Cc4c(cc(CN5CC(C#N)C5)cc4C(F)(F)F)C3=O)c2)COC1 | > 1
* C[C@@H](c1cccc(N2Cc3c(cccc3C(F)(F)F)C2=O)c1)[C@H](F)c1nncn1C (racemic) | > 1
* C[C@H](Cc1nncn1C)c1cccc(N2Cc3c(cc(CN4CC(F)C4)cc3C(F)(F)F)C2=O)c1 | > 1
* C[C@H](Cc1nncn1C)c1cccc(N2Cc3c(cc(C4CC4)nc3C3CC3)C2=O)c1 | 0.801 to 1
* Cn1cnnc1[C@@H]1C[C@@H]1c1cccc(N2Cc3c(cc(CN4CC[C@H](F)C4)cc3C(F)(F)F)C2=O)c1 | > 1

* * *

System: T-cell
assay.details: CD25 cell surface staining on T-cells co-stimulated with anti-CD3 and anti-CD28 antibody (Biological Example 2)
Assay type: cell-based, human
test.parameters: Homo sapiens, T-cell; 1 μM Cbl-b inhibitor; fold change over baseline (anti-CD3/anti-CD28 stimulated T-cells without inhibitor); read-out: CD25 staining Anti-CD3/Anti-CD28 stimulation
parameter: fold induction at 1 µM

• Cn1cnnc1[C@H](F)C1(c2cccc(N3Cc4c(cc(CN5[C@@H]6CC[C@H]5C[C@@H](F)C6)cc4C(F)(F)F)C3=O)c2)COC1 [Example 672b] = > 1.76
• C[C@H](Cc1nncn1C)c1cc(N[C@H]2CC[C@H]2O)nc(N2Cc3c(cccc3C(F)(F)F)C2=O)c1 [Example 689b] = 1.01 to 1.3
• CN1C[C@H]2CC[C@@H](C1)N2c1cc(C(=O)Nc2cccc(C3(Cc4nncn4C)COC3)c2)nc(C2CC2)n1 [Example 573] = 1.51 to 1.75
• Cn1cnnc1CC1(c2cccc(N3Cc4c(cc(C5CC5)nc4C4CC4)C3=O)c2)COC1 [Example 568] = 1.01 to 1.3
• Cn1cnnc1CC1(c2cccc(N3Cc4c(cc(CN5CCC(C(F)F)CC5)cc4C(F)(F)F)C3=O)c2)COC1 [Example 643] = 1.31 to 1.5
• Cn1cnnc1CC1(c2cccc(N3Cc4c(cc(C5CCC5)cc4C(F)(F)F)C3=O)c2)COC1 [Example 611] = 1.31 to 1.5
• Cn1cnnc1OC1(c2cccc(N3Cc4c(cc(CN5CCC(F)CC5)cc4C(F)(F)F)C3=O)c2)COC1 [Example 700] = 1.31 to 1.5
